target: T1, soluble KIR3DL1*033-Fc (human, UniProt P43629 22-340); assay: SPR (BIACORE T-100)
T1 construct: also called KIR3DL1 allele 033; Allele 033; not shown: Fc domain
T1 sequence (P43629 other isoform, or with tags, fused parts or gaps): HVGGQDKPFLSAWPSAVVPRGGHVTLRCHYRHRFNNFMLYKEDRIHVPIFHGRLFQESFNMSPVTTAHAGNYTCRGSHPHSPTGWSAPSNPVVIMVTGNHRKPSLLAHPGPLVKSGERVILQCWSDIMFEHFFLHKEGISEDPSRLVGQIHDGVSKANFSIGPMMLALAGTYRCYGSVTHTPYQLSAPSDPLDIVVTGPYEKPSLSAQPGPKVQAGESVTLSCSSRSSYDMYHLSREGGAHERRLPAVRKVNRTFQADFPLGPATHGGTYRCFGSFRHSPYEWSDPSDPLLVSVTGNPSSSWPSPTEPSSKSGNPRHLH
quantity name: pKd
Units for pKd: none; it is -log10 of a concentration expressed in mol/L.

Challenge: Note down pKd recorded for ET160-61 (antibody, human IgG1, V domains shown, Tested as human IgG1 (hIgG1), lambda light chain) VH: QVQLVESGGGLVQPGRSLRLSCAASGFTFDDYAMHWVRQAPGKGLEWVSGISWNSGSIGYADSVKGRFTISRDNAKNSLYLQMNSLRAEDTAVYYCASSLRYFEWPIDYWGQGTLVTVSS VL: NFMLTQPLSVSESPGKTVTISCTANGGSLASKYVQWFQQRPGSSPTTVIYDDNLRPSGVPDRFSGSIDTSSNSAALTISGLKTEDEADYYCQSYDNSSVVFGGGTKLTVLG
Response given: 7.97
